Run description: Pharmacokinetics, doxorubicin concentration in blood plasma after intravenous injection
Experimental context: mouse, 2 mg/kg
Readout kind: MRT (h)

[[record]]
molecule = "COc1cccc2c1C(=O)c1c(O)c3c(c(O)c1C2=O)C[C@@](O)(C(=O)CO)C[C@@H]3O[C@H]1C[C@H](N)[C@H](O)[C@H](C)O1 [Doxorubicin]"
unit_text = "h"
numeric_result = 2.8


====

Run description: Pharmacokinetics, doxorubicin concentration in blood plasma after intravenous injection
Experimental context: mouse, 2 mg/kg
Readout kind: half-life

[[record]]
molecule = "COc1cccc2c1C(=O)c1c(O)c3c(c(O)c1C2=O)C[C@@](O)(C(=O)CO)C[C@@H]3O[C@H]1C[C@H](N)[C@H](O)[C@H](C)O1 [Doxorubicin]"
result = "1.11 h"


// provenance: patent US20180360767A1
